System: Staphylococcus aureus
Assay: Antibacterial activity against Staphylococcus aureus ATCC 29213 measured after 24 hrs by microplate reader analysis
Format: functional
recordedEndpoint: MIC (µg/mL)
Write the value in µg/mL as a bare number.

Reference set, count: 3
CCCn1c2ccccc2c2c(OCC(O)CN(C)C)cccc21 (configuration not stated)    50
CCCCCCCCCCNCC(O)COc1cccc2c1c1ccccc1n2CC=C(C)C (configuration not stated)    6.25
CCCNCC(O)COc1cccc2c1c1ccccc1n2CC=C(C)C (configuration not stated)    6.25

Inquiry: Using Staphylococcus aureus as the test system, report measured MIC of CCCCCCCCNCC(O)COc1cccc2c1c1ccccc1n2CC=C(C)C (configuration not stated) .
Reply text: 6.25

Inquiry: Write down the reported MIC (system: Staphylococcus aureus) of CC(C)=CCn1c2ccccc2c2c(OCC(O)CNC(=O)[C@@H](N)CCCNC(=N)N)cccc21 (some centres not stated)
Reply text: 6.25
